biological target: mGlu5 (Homo sapiens, UniProt P41594); assay: standard mGlu5 calcium mobilization functional assay, human mGlu5; format: cell-based; conditions: EC50 (PAM), synthetic-derived M4, human mGlu5 assay; synthetic material
Sequence (P41594 21-1212): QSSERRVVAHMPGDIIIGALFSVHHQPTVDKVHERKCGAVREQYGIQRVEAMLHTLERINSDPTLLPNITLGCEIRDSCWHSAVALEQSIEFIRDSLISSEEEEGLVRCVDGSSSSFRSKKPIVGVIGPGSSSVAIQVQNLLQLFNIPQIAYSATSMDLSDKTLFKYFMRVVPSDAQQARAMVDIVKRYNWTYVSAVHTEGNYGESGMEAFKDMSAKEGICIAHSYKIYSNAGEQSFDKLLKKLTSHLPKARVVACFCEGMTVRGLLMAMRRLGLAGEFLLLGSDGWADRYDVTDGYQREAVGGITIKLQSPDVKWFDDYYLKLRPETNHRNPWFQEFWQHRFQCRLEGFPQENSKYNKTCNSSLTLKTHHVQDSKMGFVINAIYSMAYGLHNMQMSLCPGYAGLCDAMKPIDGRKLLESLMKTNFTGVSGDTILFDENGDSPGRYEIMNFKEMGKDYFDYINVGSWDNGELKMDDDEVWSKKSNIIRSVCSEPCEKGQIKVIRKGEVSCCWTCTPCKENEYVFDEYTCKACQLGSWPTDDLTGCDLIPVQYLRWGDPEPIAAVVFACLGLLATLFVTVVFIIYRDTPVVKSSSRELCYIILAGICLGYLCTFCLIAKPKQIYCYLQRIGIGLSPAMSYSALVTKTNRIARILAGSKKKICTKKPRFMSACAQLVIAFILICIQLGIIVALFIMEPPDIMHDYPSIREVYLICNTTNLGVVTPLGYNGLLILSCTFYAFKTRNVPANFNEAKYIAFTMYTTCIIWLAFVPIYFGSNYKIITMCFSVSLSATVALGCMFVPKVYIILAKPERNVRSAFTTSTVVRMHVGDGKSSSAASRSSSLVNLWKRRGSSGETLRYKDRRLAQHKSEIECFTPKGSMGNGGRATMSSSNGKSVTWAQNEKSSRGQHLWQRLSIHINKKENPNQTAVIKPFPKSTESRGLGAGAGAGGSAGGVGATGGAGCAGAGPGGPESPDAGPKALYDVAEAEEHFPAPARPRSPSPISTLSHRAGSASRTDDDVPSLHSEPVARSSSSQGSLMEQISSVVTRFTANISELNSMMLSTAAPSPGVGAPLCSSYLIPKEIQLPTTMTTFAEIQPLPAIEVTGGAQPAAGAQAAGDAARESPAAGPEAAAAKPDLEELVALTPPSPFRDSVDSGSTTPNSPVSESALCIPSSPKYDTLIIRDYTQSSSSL
valueKind: EC50

>  <compound>
NC(=O)c1ccc(C#Cc2cccc(F)c2)cn1 [M4, 5-((3-Fluorophenyl)ethynyl)picolinamide]

>  <studySystem>
mGlu5 (Homo sapiens, UniProt P41594)

>  <valueKind>
EC50

>  <measuredValue>
315 nM

$$$$
